Ki by entry:
Target: T1, IL-17A (UniProt Q16552 24-155)
T1 construct: also called Interleukin-17
T1 sequence (looked up): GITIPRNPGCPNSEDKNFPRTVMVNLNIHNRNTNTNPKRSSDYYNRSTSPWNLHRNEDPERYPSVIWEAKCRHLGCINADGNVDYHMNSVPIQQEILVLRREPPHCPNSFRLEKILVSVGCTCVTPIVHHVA
Assay: IL-17A binding assay, method analogous to WO 2011/141823; mean of n1 and n2
Starred links: 1 amine or outer side, 2 acyl side, 3 side chain; linkers in the order of their positions; H or OH if unused. Positions of bridges follow the written chain, without caps; N, C: chain ends. Non-standard residues stand in square brackets, D forms with d. No end group written: not given here. TBMB = c1c(C[*:1])cc(C[*:3])cc1C[*:2]; Dap(Me) = CNC[C@H](N)C(=O)O

binder	Ki, nM
Ac-ACPQDLEL[Dap(Me)]TFLFGDCA (linker 2-9-16 via TBMB, Bicyclic peptide on a TBMB scaffold; second cysteine of BCY00008655 replaced by Dap(Me); also called Ac-(28-06)(TBMB) Cys2Dap(Me)) [BCY00008649]	60.2
Ac-A[Dap(Me)]PQDLEL[Dap(Me)]TFLFGDCA (linker 2-9-16 via TBMB, Bicyclic peptide on a TBMB scaffold; first and second cysteines of BCY00008655 replaced by Dap(Me); also called Ac-(28-06)(TBMB) Cys12Dap(Me)) [BCY00008651]	264
Ac-ACPQDLELCTFLFGDCA (linker 2-9-16 via TBMB, Bicyclic peptide on a TBMB scaffold; also called Ac-(28-06)(TBMB)) [BCY00008655]	93
Ac-A[Dap(Me)]PQDLEL[Dap(Me)]TFLFGD[Dap(Me)]A (linker 2-9-16 via TBMB, Bicyclic peptide on a TBMB scaffold; all three cysteines of BCY00008655 replaced by Dap(Me); also called Ac-(28-06)(TBMB) Cys123Dap(Me)) [BCY00008654]	94.7
Ac-A[Dap(Me)]PQDLELCTFLFGD[Dap(Me)]A (linker 2-9-16 via TBMB, Bicyclic peptide on a TBMB scaffold; first and third cysteines of BCY00008655 replaced by Dap(Me); also called Ac-(28-06)(TBMB) Cys13Dap(Me)) [BCY00008653]	129
Ac-A[Dap(Me)]PQDLELCTFLFGDCA (linker 2-9-16 via TBMB, Bicyclic peptide on a TBMB scaffold; first cysteine of BCY00008655 replaced by Dap(Me); also called Ac-(28-06)(TBMB) Cys1Dap(Me)) [BCY00008648]	116
